# System: UACC-257 melanoma
# protocol_summary: NCI-60 one-dose screen, 48 h
# experimental_conditions: 10 µM unless noted
The panel holds about 83,000 compounds, 20% with a hit somewhere; the sample as a whole holds those more often. The source made the active and inactive calls. The calls were made as follows: active = growth percent below 10; inactive = the rest.
Outcome (select one): active, inactive

The following compounds have reported results that may help.
>>> df
                                   compound       cat
0  CSc1nc(NCCO)c(C#N)c(-c2cccc([N+](=O)[O-])c2)n1  inactive
1    Cc1oc(-c2ccc(Cl)cc2Cl)cc1C(=O)Nc1nccs1  inactive
2  CSc1nc(NCCN2CCOCC2)c(C#N)c(-c2cccc([N+](=O)[O-])c2)n1  inactive

Prompt: Please indicate how the test categorized CCN1CCC2(CC1)NC(=O)c1c(c3ccc(Cl)c(Cl)c3n1C)C2C#N (centres undefined) .
Response: active

Prompt: Please indicate how the test categorized `CCc1nnc(CNc2ccc(Cl)cc2)o1` .
Response: inactive

Prompt: Please indicate how the test categorized `NC(=NCCCC1(c2ccccc2)CCCC1)Nc1ccc(Cl)cc1` .
Response: inactive

Prompt: Please indicate how the test categorized `Clc1ccc2c(NCCNc3nc(N4CCCCC4)nc4ccccc34)ccnc2c1` .
Response: active

Prompt: Please indicate how the test categorized `O=C(COc1cccc(/C=C2\COc3ccccc3C2=O)c1)Nc1nccs1` .
Response: inactive

Prompt: Please indicate how the test categorized `O=C1/C(=C/c2ccccc2)SC(=S)N1CCc1ccc(O)cc1` .
Response: inactive

Prompt: Please indicate how the test categorized `O=C1c2c(O)cc(O)cc2-c2c(-c3ccc(O)cc3)oc3cc(O)cc1c23` .
Response: inactive

Prompt: Please indicate how the test categorized `C(=C\c1nccc2c1[nH]c1ccccc12)/c1ccccc1` .
Response: inactive

Prompt: Please indicate how the test categorized `FC(F)(F)c1ccc(-c2cn3nc(-c4c[nH]c5ccc(Br)cc45)sc3n2)cc1` .
Response: inactive

Prompt: Please indicate how the test categorized `COc1ccc(C(=O)c2sc3nc4c(c(-c5cccnc5)c3c2N)CCCC4)cc1OC` .
Response: inactive

Prompt: Please indicate how the test categorized `C=C(C)[C@@H]1CC[C@]2(C(N)=O)CC[C@]3(C)[C@H](CC[C@@H]4[C@@]5(C)C/C(=C/c6ccco6)C(=O)C(C)(C)[C@@H]5CC[C@]43C)[C@@H]12` .
Response: inactive

Prompt: Please indicate how the test categorized `CCOc1ccc(-n2nc(C(=O)Nc3ccccc3)nc2-c2cc(OC)c(OC)c(OC)c2)cc1` .
Response: inactive

Prompt: Please indicate how the test categorized CC(=O)O[C@H]1[C@@H]2OC(=O)C(CSc3ccccc3)[C@@H]2C[C@H]2O[C@]2(C)CC/C=C(\C)CCC[C@@H]1C (some centres undefined) .
Response: inactive

Prompt: Please indicate how the test categorized `O=C1Nc2c(ccc(Cl)c2Cl)/C1=C\c1ccc(C(F)(F)F)cc1` .
Response: inactive

Prompt: Please indicate how the test categorized `C#CC(F)(F)[C@]1(O)CC[C@H]2[C@@H]3CCC4=CC(=O)CCC4=C3[C@@H](c3ccc(C(C)=O)cc3)C[C@@]21C` .
Response: inactive

Prompt: Please indicate how the test categorized `c1ccc(-c2c(-c3ccccc3)[n+](Cc3ccc4ccccc4c3)c(-c3ccc(-c4nc5ccccc5s4)cc3)n2Cc2ccc3ccccc3c2)cc1` .
Response: active
